Target Desc: T1, QIEKLVEGKAQIQ (not fully specified)
T1 construct: alanine at this position
T1 peptide: QIEKLVEGKAQIQ
Test Summary: ELISA, immobilized peptide QIEKLVEGKAQIQ
Excerpt: FIG. 20 depicts the value detected by ELISA, i.e., OD₄₅₀ absorbance. […] This experiment is used to determine the precise amino acid epitopes that different monoclonal antibodies bind to, and the relative importance of each amino acid to the binding antibody.
No end group written: not given here.
Quick reference: OD450 absorbance of the listed items.

Binder	OD450 absorbance
MM14 (antibody, IgG2b, V domains shown) VH: QVQLKESGPGLVAPSQSLSITCTVSGFSLTSYAVSWVRQPPGKGLEWLGIIWGDGSTNYHSALISRLSISKDNSKSQVFLKLNSLQTDDTATYYCAKQERFSDGYYDGFAYWGQGTLVTVSA VL: QIVLTQSPAIMSASPGEKVTITCSASSSVSYMHWFQQKPGTSPKLWIYSTSNLASGVPARFSGSGSGTSYSLTISRMEAEDAATYYCQQRSSYPFTFGSGTKLEIKR	0.022
MM07 (antibody, V domains shown, The VH and VL begin with what look like leader peptides (MDWLW..., MVSSAQ...)) VH: QIQLVQSGPELKKPGETVRISCKASGYTLTTAGMQWVQKIPGKGLKWIGWINTHSGVAEFAEDFKGRFAFSLETSANTAYLQIRNLKNEDTATYFCARLGLLGYWGQGTTLTVSS VL: DILLTQSPAILSVSPGERVSFSCRASQSIGTTIHWYQQRTNGSPRLLIKYASESISGIPSRFSGSGSGTDFTLSINSVESEDIADYYCQQSNSWPWTFGGGTKLEIKR	0.296
MM02 (antibody, IgG2b, V domains shown) VH: QIQLVQSGPEVKKPGETVRISCKASGYTLTTAGIQWVQKMPGKGLKWIGWINTHSGVPEYAEDFKGRFAFFLETSASTAYLQISNLKNEDTATYFCARLGLLGYWGQGTTLTVSS VL: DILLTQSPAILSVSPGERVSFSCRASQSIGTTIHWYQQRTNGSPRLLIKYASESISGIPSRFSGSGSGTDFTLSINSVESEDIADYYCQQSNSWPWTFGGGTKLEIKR	0.173
MM08 (antibody, IgG1, V domains shown) VH: QVQLQQPGAELVRPGASVKLSCKSSDYTFTRYWMNWVKQRPGQGLEWIGMIDPSDSETHHNQMFKDKATLTVDKSSSTAYMQLSSLTSEDSAVYFCARYLGGKEGSFDYWGQGTTLTVSS VL: DIVLTQSPSSLAVSAGERVTMSCKSSQSLFNSRTRKNYLAWYQQKPGQSPKLLLYWASTRESGVPDRFTGSGSGTDFTLTISSVKTEDLAVYYCKQSYELPWTFGGGTKLEMKR	0.023
MM05 (antibody, IgG1, V domains shown) VH: QVQLQQPGAELVRPGASVKLSCEASGYTFTSYWMNWVKQRPGQGLEWIGMIDPSDSETHYNQMFKDKATLTVDKSSSTAYMQLSSLTSEDSAVYYCARYLGGKEGSFDYWGQGTTLTVSS VL: DIVMSQSPSSLAVSAGEKVTMSCKSSQSLLNSRTRKNYLAWYQQKPGQSPKLLIYWASTRESGVPDRFTGSGSGTDFTLTISSVQAEDLAVYYCKQSYSLPWTFGGGTKLEIKR	0.168

Source of measurements: patent US20230080534A1
